Ref: the supplement of paper PMC5998384

- System: HeLa Kyoto;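 further: HeLa Kyoto cells arrested at G1/S by double thymidine block, proteins quantified by TMT10plex mass spectrometry in mild NP-40 versus SDS extracts, three biological replicates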
- method: solubility in G1/S (NP-40 vs SDS abundance) (log2 ratio); higher = more soluble
- stated-conditions: cell cycle stage: G1/S
value-kind: solubility in G1/S (log2)
Give the value as a plain number.

Log: HeLa Kyoto, substance MEANGLGPQGFPELKNDTFLRAAWGEETDYTPVWCMRQAGRYLPEFRETRAAQDFFSTCRSPEACCELTLQPLRRFPLDAAIIFSDILVVPQALGMEVTMVPGKGPSFPEPLREEQDLERLRDPEVVASELGYVFQAITLTRQRLAGRVPLIGFAGAPWTLMTYMVEGGGSSTMAQAKRWLYQRPQASHQLLRILTDALVPYLVGQVVAGAQALQLFESHAGHLGPQLFNKFALPYIRDVAKQVKARLREAGLAPVPMIIFAKDGHFALEELAQAGYEVVGLDWTVAPKKARECVGKTVTLQGNLDPCALYASEEEIGQLVKQMLDDFGPHRYIANLGHGLYPDMDPEHVGAFVDAVHKHSRLLRQN [UROD] , solubility in G1/S (log2) = 0.254

Log: HeLa Kyoto, substance MEPGPDGPAASGPAAIREGWFRETCSLWPGQALSLQVEQLLHHRRSRYQDILVFRSKTYGNVLVLDGVIQCTERDEFSYQEMIANLPLCSHPNPRKVLIIGGGDGGVLREVVKHPSVESVVQCEIDEDVIQVSKKFLPGMAIGYSSSKLTLHVGDGFEFMKQNQDAFDVIITDSSDPMGPAESLFKESYYQLMKTALKEDGVLCCQGECQWLHLDLIKEMRQFCQSLFPVVAYAYCTIPTYPSGQIGFMLCSKNPSTNFQEPVQPLTQQQVAQMQLKYYNSDVHRAAFVLPEFARKALNDVS [SRM] , solubility in G1/S (log2) = 0.283

Log: HeLa Kyoto, substance MERAVPLAVPLGQTEVFQALQRLHMTIFSQSVSPCGKFLAAGNNYGQIAIFSLSSALSSEAKEESKKPVVTFQAHDGPVYSMVSTDRHLLSAGDGEVKAWLWAEMLKKGCKELWRRQPPYRTSLEVPEINALLLVPKENSLILAGGDCQLHTMDLETGTFTRVLRGHTDYIHCLALRERSPEVLSGGEDGAVRLWDLRTAKEVQTIEVYKHEECSRPHNGRWIGCLATDSDWMVCGGGPALTLWHLRSSTPTTIFPIRAPQKHVTFYQDLILSAGQGRCVNQWQLSGELKAQVPGSSPGLLSLSLNQQPAAPECKVLTAAGNSCRVDVFTNLGYRAFSLSF [THOC6] , solubility in G1/S (log2) = -0.108

Log: HeLa Kyoto, substance MLGWIKRLIRMVFQQVGVSMQSVLWSRKPYGSSRSIVRKIGTNLSLIQCPRVQFQINSHATEWSPSHPGEDAVASFADVGWVAKEEGECSARLRTEVRSRPPLQDDLLFFEKAPSRQISLPDLSQEEPQLKTPALANEEALQKICALENELAALRAQIAKIVTQQEQQNLTAGDLDSTTFGTIPPHPPPPPPPLPPPALGLHQSTSAVDLIKERREKRANAGKTLVKNNPKKPEMPNMLEILKEMNSVKLRSVKRSEQDVKPKPVDATDPAALIAEALKKKFAYRYRSDSQDEVEKGIPKSESEATSERVLFGPHMLKPTGKMKALIENVSDS [MTFR1] , solubility in G1/S (log2) = 0.556

Log: HeLa Kyoto, substance MRDRLPDLTACRKNDDGDTVVVVEKDHFMDDFFHQVEEIRNSIDKITQYVEEVKKNHSIILSAPNPEGKIKEELEDLNKEIKKTANKIRAKLKAIEQSFDQDESGNRTSVDLRIRRTQHSVLSRKFVEAMAEYNEAQTLFRERSKGRIQRQLEITGRTTTDDELEEMLESGKPSIFTSDIISDSQITRQALNEIESRHKDIMKLETSIRELHEMFMDMAMFVETQGEMINNIERNVMNATDYVEHAKEETKKAIKYQSKARRKKWIIIAVSVVLVAIIALIIGLSVGK [STX2] , solubility in G1/S (log2) = 0.137

Log: HeLa Kyoto, substance MAAAAGDADDEPRSGHSSSEGECAVAPEPLTDAEGLFSFADFGSALGGGGAGLSGRASGGAQSPLRYLHVLWQQDAEPRDELRCKIPAGRLRRAARPHRRLGPTGKEVHALKRLRDSANANDVETVQQLLEDGADPCAADDKGRTALHFASCNGNDQIVQLLLDHGADPNQRDGLGNTPLHLAACTNHVPVITTLLRGGARVDALDRAGRTPLHLAKSKLNILQEGHAQCLEAVRLEVKQIIHMLREYLERLGQHEQRERLDDLCTRLQMTSTKEQVDEVTDLLASFTSLSLQMQSMEKR [ANKRD54] , solubility in G1/S (log2) = 0.0925

Log: HeLa Kyoto, substance `ARHGEF11` , solubility in G1/S (log2) = -0.0113

Log: HeLa Kyoto, substance MKLYSLSVLYKGEAKVVLLKAAYDVSSFSFFQRSSVQEFMTFTSQLIVERSSKGTRASVKEQDYLCHVYVRNDSLAGVVIADNEYPSRVAFTLLEKVLDEFSKQVDRIDWPVGSPATIHYPALDGHLSRYQNPREADPMTKVQAELDETKIILHNTMESLLERGEKLDDLVSKSEVLGTQSKAFYKTARKQNSCCAIM [YKT6] , solubility in G1/S (log2) = -0.0827

Log: HeLa Kyoto, substance MDLSGVKKKSLLGVKENNKKSSTRAPSPTKRKDRSDEKSKDRSKDKGATKESSEKDRGRDKTRKRRSASSGSSSTRSRSSSTSSSGSSTSTGSSSGSSSSSASSRSGSSSTSRSSSSSSSSGSPSPSRRRHDNRRRSRSKSKPPKRDEKERKRRSPSPKPTKVHIGRLTRNVTKDHIMEIFSTYGKIKMIDMPVERMHPHLSKGYAYVEFENPDEAEKALKHMDGGQIDGQEITATAVLAPWPRPPPRRFSPPRRMLPPPPMWRRSPPRMRRRSRSPRRRSPVRRRSRSPGRRRHRSRSSSNSSR [RNPS1] , solubility in G1/S (log2) = -0.501

Log: HeLa Kyoto, substance MAAMRKALPRRLVGLASLRAVSTSSMGTLPKRVKIVEVGPRDGLQNEKNIVSTPVKIKLIDMLSEAGLSVIETTSFVSPKWVPQMGDHTEVLKGIQKFPGINYPVLTPNLKGFEAAVAAGAKEVVIFGAASELFTKKNINCSIEESFQRFDAILKAAQSANISVRGYVSCALGCPYEGKISPAKVAEVTKKFYSMGCYEISLGDTIGVGTPGIMKDMLSAVMQEVPLAALAVHCHDTYGQALANTLMALQMGVSVVDSSVAGLGGCPYAQGASGNLATEDLVYMLEGLGIHTGVNLQKLLEAGNFICQALNRKTSSKVAQATCKL [HMGCL] , solubility in G1/S (log2) = 0.536

Log: HeLa Kyoto, substance MKDPSRSSTSPSIINEDVIINGHSHEDDNPFAEYMWMENEEEFNRQIEEELWEEEFIERCFQEMLEEEEEHEWFIPARDLPQTMDQIQDQFNDLVISDGSSLEDLVVKSNLNPNAKEFVPGVKYGNI [PAIP2] , solubility in G1/S (log2) = 0.197
